Target: HIV-1 RT(p66) (Human immunodeficiency virus type 1 group M subtype B, UniProt P04585)
Construct: 1-10 at 200 μg/ml to HIV-1 RT(p66)
Experiment: anti-virus activity test, HIV-1 RT(p66) inhibition
Format: biochemical
Settings: HIV-1 RT(p66); read-out: IC50 (μg/ml) (converted)
Criterion: IC50 strictly less than 30 µM. Met: Fulfilled. Not met: Not fulfilled.

Would you please look over these solved cases?
{"columns": ["Compound structure", "Class assignment"],
 "data": [
  ["N=C(N)NCC(=O)Nc1cccc2c1C(=O)c1cccc(N)c1C2=O", "Fulfilled"],
  ["N=C(N)NCC(=O)Nc1ccc(N)c2c1C(=O)c1ccccc1C2=O", "Fulfilled"]
]}

Item N=C(N)NCC(=O)Nc1ccc2c(c1)C(=O)c1ccc(N)cc1C2=O : IC50 beneath 30 µM, strictly?
Not fulfilled

Moving on to the next compound: N=C(N)NCC(=O)Nc1ccc2c(c1NC(=O)CNC(=N)N)C(=O)c1ccccc1C2=O
Not fulfilled

Input N=C(N)NCC(=O)Nc1ccc2c(c1N)C(=O)c1ccccc1C2=O
Not fulfilled
